assay: probe aLAP1 signal on lysate-treated microarray – cell lysate, small-molecule microarray, COS7 lysate, primary screen (AID 1124); conditions: probe aLAP1, fluorescence, higher = more signal;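 further: lysate comes from COS7 cells expressing LAP1 and is applied at 0.3 µg/mL; score merges spot fluorescence near 667 nm with signal-to-noise over triplicate slides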
We begin with a simple list: items and their reported composite z-score.
Answer with the value's number alone.

Solved cases (5 shown):
INSERT INTO results (compound, testresult) VALUES
  ('C=CCC(OC(C)=O)[C@@H]1[C@@H](N(Cc2ccc(-c3ccccc3)cc2)C(=O)Cc2ccc(OC)cc2)c2cc(OCCCO)ccc2N1C(=O)c1ccc(-c2ccccc2)cc1 (stereo partly drawn)', 0.394),
  ('O=C1O[C@@H](c2ccccc2)[C@@H](c2ccccc2)N2[C@@H](c3ccc(O)cc3)[C@]3(C(=O)Nc4ccc(C#CC5(O)CCCCCC5)cc43)[C@@H](C(=O)N3CCN(c4ncccn4)CC3)[C@H]12', 0.333),
  ('CC[C@@H]1[C@@H]2C3C(=O)N(CC)C(=O)C3CC(=O)[C@@H]2[C@H](c2ccc(C)cc2)N1S(=O)(=O)c1ccc(C)cc1 (stereo partly drawn)', 1.64),
  ('C=C(COC)C(=O)CC[C@H](OC(=O)c1ccccc1-c1ccccc1C(=O)O)c1ccc(CO)o1', 0.134),
  ('COc1ccc(C(=O)Nc2ccc(CN3C(=O)[C@@]4(O[C@@H](CC(=O)N5Cc6ccccc6C[C@H]5CO)[C@H]([Si](C)(C)c5ccc(OC)cc5)[C@H]4C)c4ccccc43)cc2)cc1', 0.226);

Ask | # get_value(readout='composite z-score', item= O=C1OCC=C[C@H]2OC34C=CCN(CCN5CCOCC5)C(=O)[C@H]3N(CCCCCO)C(=O)[C@@H]4[C@@H]12 (stereo partly drawn) )
Reply | -0.723

Ask | Using the record for NCCCCCCNC(=O)[C@H]1C[C@H]2C(=O)N3CCC[C@H]3C(=O)N2[C@H]1c1ccc(O)cc1 , report its composite z-score.
Reply | 0.597

Ask | Consider the compound COC(=O)C(CC#Cc1ccc2c(c1)[C@]1(C(=O)N2)[C@H](c2ccc(O)cc2)N2[C@H](c3ccccc3)[C@H](c3ccccc3)OC(=O)[C@H]2[C@@H]1C(N)=O)C(=O)OC and give its measured composite z-score.
Reply | -0.404

* * *

compounds and their reported composite z-score
test: compounds binding Alexa647 anti-His antibody – biochemical, small-molecule microarray, 635 nm fluorescence, artefact control for SMM control protein annotation, primary screen (AID 1128); conditions: higher = more signal;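 further: score merges feature fluorescence with signal-to-noise for each printed compound spot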
Lab note: write the figure by itself, no unit.

Reference set (5 entries):
INSERT INTO measurements (compound, testresult) VALUES
  ('CCN(CC)c1ccc(N2CC=CC34O[C@@H]5/C=C\CCCOC(=O)C5[C@H]3C(=O)N(CCCCCCO)[C@@H]4C2=O)cc1 (stereo partly specified)', 1.27),
  ('CN(C)CCCCNC(=O)[C@H]1C[C@H]2C(=O)N[C@@H](CCCC[N+](C)(C)C)C(=O)N2[C@H]1c1cccc(OCCO)c1', 1.06),
  ('C=CCOC(=O)[C@@H]1[C@H]2C(=O)O[C@H](c3ccccc3)[C@H](c3ccccc3)N2[C@H](c2ccc(OCCOC(=O)[C@@H]3C[C@@H]4C(=O)N[C@@H](CCCCNC(C)=O)C(=O)N4[C@@H]3c3ccc(O)cc3)cc2)[C@@]12C(=O)Nc1ccc(I)cc12', 1.73),
  ('COC(=O)C(CC#Cc1ccc2c(c1)[C@]1(C(=O)N2)[C@H](C(=O)N2CCc3cc(OC)c(OC)cc3C2)[C@H]2C(=O)O[C@H](c3ccccc3)[C@H](c3ccccc3)N2[C@@H]1c1ccc(OCCO)cc1)C(=O)OC', 1.47),
  ('C[N+](C)(C)CCCC[C@@H]1NC(=O)[C@H]2C[C@@H](C(=O)NCCCCCCN)[C@@H](c3cccc(OCCO)c3)N2C1=O', 0.711);

Okay, now this compound:
Ask | Param item = COC(=O)[C@@]1(Cc2ccccc2)[C@H]2c3cc(C(=O)N4CCCC4)n(Cc4ccccc4)c3C[C@H]2CN1C(=O)c1ccccc1 ; retrieve measured composite z-score.
Reply | 0.673

* * *

Each entry below carries its recorded composite z-score.
assay: probe aLefty1 binding on compound microarray – biochemical, small-molecule microarray, 635/667 nm fluorescence, primary screen (AID 1153); settings: higher = more signal;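 further: score merges spot fluorescence with signal-to-noise ratio from the scanned slide images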

Below are worked cases with known answers.
INSERT INTO results (molecule, testresult) VALUES
  ('[N-]=[N+]=NCc1ccccc1C[C@@]1(C(=O)NCCN2CCOCC2)N=C(c2ccc(OCCCO)cc2)O[C@@H]1c1ccccc1CN=[N+]=[N-]', 0.565),
  ('CCOC(=O)C1=CCC(c2cccc(Cl)c2)O1 (centres undefined)', 0.152),
  ('COC(=O)[C@@]1(Cc2ccccc2)[C@H]2c3cc(C(=O)N4CCCC4)n(Cc4ccc(OC(F)(F)F)cc4)c3C[C@H]2CN1C(=O)c1ccccc1', 0.592);

Turning now to a further molecule:
Ask | What value of composite z-score has been reported for the following molecule? [N-]=[N+]=NCc1ccccc1C[C@]1(C(=O)NCCN2CCOCC2)N=C(c2ccc(OCCCO)cc2)O[C@H]1c1ccccc1
Reply | 0.428

* * *

assay: JC-1 mitochondrial signal, unstimulated MM1S myeloma – cell-based, JC-1 fluorescence, 24 h, 100 nL compound, profiling panel (AID 1170); conditions: MM1S mitochondrial potential, higher = more signal; further: test concentration not given here
observationType: z-score

INSERT INTO results (compound, observationtype, testresult) VALUES
  ('N#Cc1ccc(NN2C(C(O)c3ccccc3)C=CC3C(=O)N(c4ccccc4)C(=O)C32)cc1 (centres undefined)', 'z-score', 0.976),
  ('COc1ccccc1CN1C(=O)c2ccccc2[C@](Cc2ccccc2I)(C(=O)NCCN2CCOCC2)[C@@H]1c1ccc(CO)cc1', 'z-score', -0.454),
  ('O=C1NC(=O)C2C1C=CC(C(O)c1ccc3c(c1)OCO3)N2Nc1ccc(Cl)cc1Cl (centres undefined)', 'z-score', -0.339);

Ask | Data request, read-out z-score, for [N-]=[N+]=NCc1ccccc1C[C@]1(C(=O)NCCN2CCOCC2)N=C(c2ccc(OCCCO)cc2)O[C@H]1c1ccccc1
Reply | -0.54

* * *

assay: small molecules captured by biotinylated probe aFGF10 – biochemical, small-molecule microarray, fluorescence 635/667, stem cell growth factor project, primary screen (AID 1071); conditions: higher = more signal;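 further: score merges 667 nm spot intensity and signal to noise from triplicate slides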
Each entry below carries its recorded composite z-score.
Lab note: jot down the number only; don't add units.

INSERT INTO assay_data (compound, testresult) VALUES
  ('CC(C)C[C@@H]1NC(=O)[C@@H]2C[C@H](C(=O)NCCCC[N+](C)(C)C)[C@H](c3cccc(OCCO)c3)N2C1=O', -0.0155);

Ask | Entry COC(=O)C(CC#Cc1ccc2c(c1)[C@]1(C(=O)N2)[C@H](c2ccccc2OCCO)N2[C@H](c3ccccc3)[C@H](c3ccccc3)OC(=O)[C@H]2[C@@H]1C(=O)Nc1nc2ccccc2s1)C(=O)OC has what composite z-score?
Reply | 0.605

Ask | Look up composite z-score for this compound: CC(C)=CCCC(C)=CC(O)C1C=CC2C(=O)N(c3ccccc3)C(=O)C2N1Nc1ccc([N+](=O)[O-])cc1 (configuration not stated)
Reply | 0.344

* * *

Entries and their measured composite Z-score follow.
test: probe aXIP binding to arrayed compounds – biochemical, NeuroSMM set, 635/667 nm fluorescence, primary screen (AID 1119); conditions: small-molecule microarray, higher = more signal, called active from +8 up or from −8 down;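 further: probe is the protein aXip251-270 applied at 1 µg/mL to compound-printed slides; binding of probe to printed compounds measured as 667 nm fluorescence plus signal to noise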
Activity calls are given as the source filed them.

Below: 4 compounds and their reported composite Z-score.
INSERT INTO results (compound, testresult) VALUES
  ('C[C@]12C(=O)N(CCCCCO)[C@@H]3C(=O)N(c4ccc(Cl)cc4)CC=CC31O[C@@H]1/C=C\CCCOC(=O)C12 (stereo not given in full)', '0.312 (inactive)'),
  ('CCCCC(O)C1C=CC2C(=O)N(Cc3ccccc3)C(=O)C2N1n1cnnc1 (stereo not given)', '0.406 (inactive)'),
  ('COc1ccc([Si](C)(C)[C@@H]2[C@@H](CCO)O[C@]3(C(=O)N(Cc4ccc(N5C(=O)c6ccccc6Oc6ccccc65)cc4)c4ccccc43)[C@H]2C)cc1', '0.441 (inactive)'),
  ('O=C(O)[C@]1(CCS(=O)(=O)c2ccccc2)N=C(c2ccc(OCCCO)cc2)O[C@@H]1c1ccccc1', '0.207 (inactive)');

Ask | May I ask what composite Z-score has been recorded for Cc1ccc(C(C)CC(O)C2C=CC3C(=O)N(Cc4ccccc4)C(=O)C3N2n2cnnc2)o1 (stereo not given) ?
Reply | 0.391 (inactive)

Ask | Value lookup for composite Z-score; key = Cc1ccc(N2C(=O)c3ccccc3[C@](C)(C(=O)NC(C)C)[C@@H]2c2ccc(CO)cc2)nc1
Reply | -1.02 (inactive)

Ask | Value lookup for composite Z-score; key = CCOC(=O)C[C@H]1[C@H](OC(=O)c2cc3ccccc3oc2=O)[C@@H](NC(=O)c2ccc3ccccc3n2)c2cc(OCCCO)ccc2N1C(=O)c1ccc2ccccc2n1
Reply | 0.581 (inactive)
